- ASSAYED_SYSTEM: T1, HLA-A2/E6 (29-38) tetramer (human; HPV 16)
- T1 construct: also called E6(29-38) peptide-MHC tetramer; E6(29-38)-loaded tetramer
- TEST: tetramer flow cytometry; transfected 1:1 CD4+ and CD4+/CD8+ Jurkat-derived cells;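 note: cell mixtures transiently transfected with TCR-encoding plasmids, analysed by flow cytometry 48 h later after HLA-A*02:01 E6 tetramer staining combined with anti-CD8 antibody co-staining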
Attribute: % cells in E6 tet-/CD8- quadrant

Record excerpt, results attached:
TCR 18 (codon optimized, cysteine modified version) (TCR, V domains shown) V domain 1: KQEVTQIPAALSVPEGENLVLNCSFTDSAIYNLQWFRQDPGKGLTSLLLIQSSQREQTSGRLNASLDKSSGRSTLYIAASQPGDSATYLCAEGNAGGTSYGKLTFGQGTILTVHP V domain 2: DVKVTQSSRYLVKRTGEKVFLECVQDMDHENMFWYRQDPGLGLRLIYFSYDVKMKEKGDIPEGYSVSREKKERFSLILESASTNQTSMYLCASSFWGRSNSPLHFGNGTRLTVTE :: 61.1%
TCR 23 (codon optimized, cysteine modified version) (TCR, V domains shown) V domain 1: AQKITQTQPGMFVQEKEAVTLDCTYDTSDQSYGLFWYKQPSSGEMIFLIYQGSYDEQNATEGRYSLNFQKARKSANLVISASQLGDSAMYFCAMSPPGGSARQLTFGSGTQLTVLP V domain 2: DVKVTQSSRYLVKRTGEKVFLECVQDMDHENMFWYRQDPGLGLRLIYFSYDVKMKEKGDIPEGYSVSREKKERFSLILESASTNQTSMYLCASSPWGQSNQPQHFGDGTRLSILE :: 19.7%

// switching to the query binder
input: Tell me its % cells in E6 tet-/CD8- quadrant given TCR 21 (codon optimized, cysteine modified version) (TCR, V domains shown) V domain 1: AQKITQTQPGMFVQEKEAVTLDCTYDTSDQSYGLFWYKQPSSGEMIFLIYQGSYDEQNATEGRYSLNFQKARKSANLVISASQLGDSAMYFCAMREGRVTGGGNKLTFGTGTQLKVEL V domain 2: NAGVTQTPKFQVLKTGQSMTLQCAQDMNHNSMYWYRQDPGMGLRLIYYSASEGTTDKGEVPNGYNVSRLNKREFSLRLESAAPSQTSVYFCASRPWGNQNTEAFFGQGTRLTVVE as the entry.
output: 31.3%

Every entry's value here was drawn from patent US20190225692A1.
